# Tested on: Saccharomyces cerevisiae
# MEASUREMENT PROTOCOL: protein stability index of tFT-peptide fusion (C-terminal peptide) (PSI (0-1 scale)); higher = more stable (slower turnover)
# CONDITION NOTES: genetic background: wild type; temperature: 30 C
Can you tell me protein stability index for the items I'm about to list?
Numbers only.

Examples from the recorded data:
{"SEQ": "DPTLLLYPLSPL", "protein stability index": 0.57}
{"SEQ": "DDTSIVRRMQSP", "protein stability index": 0.674}
{"SEQ": "SKSCIVSNVLVY", "protein stability index": 0.511}

Dear colleague, could you please provide protein stability index for the sequences listed below?
1. PRGPPGILSRPP
2. MTLYSFSSALLA
3. LHLSSFVILLEL
4. PPSLEPFSPSPR
5. GVGRVGLACFVV

Result ::
0.674
0.354
0.421
0.639
0.542

Consider the following items and state reported protein stability index for each.
1. SVLEGGRWGFTR
2. INWGVRGTLSSE

Result ::
0.758
0.706

* * *

Provide the reported protein stability index of each item.
# Tested on: Saccharomyces cerevisiae
# MEASUREMENT PROTOCOL: protein stability index of tFT-peptide fusion (C-terminal peptide) (PSI (0-1 scale)); higher = more stable (slower turnover)
# CONDITION NOTES: genetic background: das1 deletion; temperature: 30 C
Answers are plain numbers.

Solved cases below.
{"SEQ": "SGVVWFYIFCLS", "VALUE OBSERVED": 0.322}
{"SEQ": "FVSHRRFSLFLY", "VALUE OBSERVED": 0.602}
{"SEQ": "SVSQTSILDSRL", "VALUE OBSERVED": 0.668}
{"SEQ": "VCVWVDILAFCS", "VALUE OBSERVED": 0.183}

For each entry beneath this line, provide reported protein stability index.
1. RSFSKRSFMFLC
2. VGVVVAIGLVRM
3. ASLVGGVLLVVV
4. VFSGVTTILVRT
5. LCSCMWISAIAI

Result ::
1: 0.646; 2: 0.381; 3: 0.346; 4: 0.37; 5: 0.435

I would be grateful if you could provide protein stability index for each of the following entries.
1. YAFSTCTILIRF
2. LVDPFAALRHVV
3. VSLHVFVFLLAS
4. NFFIQFHNLLFP
5. KDIFQIYTLYVF
6. GGSLWLVHLKTI
7. CFFFPCFSFRFL
8. GGRSLYAILCAV

Result ::
[0.211, 0.709, 0.249, 0.664, 0.329, 0.633, 0.416, 0.277]

Would you be so kind as to report protein stability index for each listed record?
1. KIILMCYTLITL
2. HVLALIFLYIPD

Result ::
[0.228, 0.33]

* * *

# Tested on: Saccharomyces cerevisiae
# MEASUREMENT PROTOCOL: protein stability index of tFT-peptide fusion (C-terminal peptide) (PSI (0-1 scale)); higher = more stable (slower turnover)
# CONDITION NOTES: genetic background: wild type; temperature: 30 C
QUANTITY MEASURED: protein stability index
Numbers only.

See these solved cases before continuing.
{"SEQ": "PGCVIENGTKLY [ADE57 C-terminal 12 aa]", "protein stability index": 0.71}
{"SEQ": "LEEETLPPSQKK [PYC2 C-terminal 12 aa]", "protein stability index": 0.647}
{"SEQ": "VVVTGNLQILEH [UGP1 C-terminal 12 aa]", "protein stability index": 0.684}
{"SEQ": "EANNLLNIIKGN [MRP51 C-terminal 12 aa]", "protein stability index": 0.294}
{"SEQ": "KNIPEKFKNGIF [SSP120 C-terminal 12 aa]", "protein stability index": 0.647}

Hey, can you go through the list below and give me protein stability index for every item?
1. DSERKVLSEALL [KAP114 C-terminal 12 aa]
2. IAEENSSTESLF [CIS1 C-terminal 12 aa]

Result ::
1: 0.685; 2: 0.726

Please state, for each entry, its recorded protein stability index.
1. HSSYDRPMIIKN [UBP15 C-terminal 12 aa]
2. RRLKNKQRTRFQ [YNR021W C-terminal 12 aa]
3. QLQDLLSSENNK [AIM11 C-terminal 12 aa]
4. DQLLALYEDGLL [AHC2 C-terminal 12 aa]
5. FCHGAEDAWNIL [EMG1 C-terminal 12 aa]
6. HEWKTSINAIST [SWT1 C-terminal 12 aa]
7. FAGENFHHGDKL [ENO1 C-terminal 12 aa]

Result ::
0.662
0.698
0.688
0.72
0.712
0.727
0.706

List reported protein stability index for each of these sequences:
1. KILDEINLDRIK [HEM3 C-terminal 12 aa]
2. QELISLIDVINQ [RNH203 C-terminal 12 aa]
3. SSYFRIEGKKKK [CUE2 C-terminal 12 aa]
4. DKEVVYFDEWTI [RPC34 C-terminal 12 aa]
5. NVGKQLSNEIIY [PRP28 C-terminal 12 aa]
6. ADRASVEIIDAN [PFA3 C-terminal 12 aa]
7. ERNKKSRPPIYK [ARL3 C-terminal 12 aa]

Result ::
1. 0.681
2. 0.739
3. 0.683
4. 0.729
5. 0.686
6. 0.705
7. 0.735
